# Ratio per record follows
Molecular target: Urokinase-type plasminogen activator (Homo sapiens)
Assay: Ratio of inactivation to apparent binding constant against human urokinase
Please respond with the number in M⁻¹ s⁻¹ and leave the unit unwritten.

Below are worked cases with known answers.
Quick check: Ratio of C[S+](C)Cc1ccc2cc1C(=O)NCC(=O)NC(CCCN=C(N)N)C(=O)N2 (stereo not given) ?
341

Also C[S+](Cc1ccc2c(c1)C(=O)NCC(=O)NC(CCCCN)C(=O)N2)c1ccccc1 (stereo not given) , if possible.
25

Also C[S+](Cc1ccc2cc1C(=O)NCC(=O)NC(CCCN=C(N)N)C(=O)N2)c1ccccc1 (stereo not given) , if possible.
2330

Next:
Quick check: Ratio of N=C(N)NCCCC1NC(=O)CNC(=O)c2cc(ccc2CBr)NC1=O (stereo not given) ?
185

Also C[S+](Cc1ccc2cc1C(=O)NCC(=O)NC(CCCCN)C(=O)N2)c1ccccc1 (stereo not given) , if possible.
154

---

Molecular target: Plasminogen (Homo sapiens)
Test: Ratio of inactivation to apparent binding constant against plasmin
metric-name: Ratio

Below are worked cases with known answers.
Quick check: Ratio of C[S+](Cc1ccc2cc1C(=O)NCC(=O)NC(CCCN=C(N)N)C(=O)N2)c1ccccc1 (centres undefined) ?
40 M⁻¹ s⁻¹

Also C[S+](Cc1ccc2cc1C(=O)NCC(=O)NC(CCCCN)C(=O)N2)c1ccccc1 (centres undefined) , if possible.
75 M⁻¹ s⁻¹

Next:
Quick check: Ratio of N=C(N)NCCCC1NC(=O)CNC(=O)c2cc(ccc2CBr)NC1=O (centres undefined) ?
2 M⁻¹ s⁻¹

---

Target: Serine protease 1 (Bos taurus) (UniProt P00760)
Sequence (P00760 whole entry): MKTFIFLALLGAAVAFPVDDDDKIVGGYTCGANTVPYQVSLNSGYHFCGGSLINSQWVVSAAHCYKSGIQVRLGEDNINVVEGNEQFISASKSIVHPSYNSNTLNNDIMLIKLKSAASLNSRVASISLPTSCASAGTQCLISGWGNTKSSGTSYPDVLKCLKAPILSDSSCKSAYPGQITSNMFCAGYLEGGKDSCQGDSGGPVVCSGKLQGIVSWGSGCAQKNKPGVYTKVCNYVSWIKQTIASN
Experiment: Ratio of inactivation to apparent binding constant against bovine trypsin;NI=no inhibition
Active and inactive are the calls of the source. The rule behind the calls is not given here.
metric-name: Ratio

Quick check: Ratio of NCCCCC1NC(=O)CNC(=O)c2cc(CBr)ccc2NC1=O (centres undefined) ?
inactive

Also N=C(N)NCCCC1NC(=O)CNC(=O)c2cc(CBr)ccc2NC1=O (centres undefined) , if possible.
5 M⁻¹ s⁻¹

Also C[S+](C)Cc1ccc2cc1C(=O)NCC(=O)NC(CCCCN)C(=O)N2 (centres undefined) , if possible.
inactive

Also C[S+](Cc1ccc2c(c1)C(=O)NCC(=O)NC(CCCCN)C(=O)N2)c1ccccc1 (centres undefined) , if possible.
inactive

---

Target: Serine protease 1 (Bos taurus) (UniProt P00760)
Experiment: Ratio of inactivation to apparent binding constant against bovine trypsin
# log10 Ratio per record follows
A value of 2 here means Ratio of 100 in M⁻¹ s⁻¹, since values are log10.

Below are worked cases with known answers.
Quick check: log10 Ratio of C[S+](C)Cc1ccc2cc1C(=O)NCC(=O)NC(CCCN=C(N)N)C(=O)N2 (stereo not given) ?
0.00

Also N=C(N)NCCCC1NC(=O)CNC(=O)c2cc(ccc2CBr)NC1=O (stereo not given) , if possible.
2.75

Also C[S+](Cc1ccc2cc1C(=O)NCC(=O)NC(CCCN=C(N)N)C(=O)N2)c1ccccc1 (stereo not given) , if possible.
2.96

Also NCCCCC1NC(=O)CNC(=O)c2cc(ccc2CBr)NC1=O (stereo not given) , if possible.
2.40

Next molecule, please.
Quick check: log10 Ratio of C[S+](Cc1ccc2cc1C(=O)NCC(=O)NC(CCCCN)C(=O)N2)c1ccccc1 (stereo not given) ?
2.93
